Read-out: Cytochrome P450 (CYP24A1), CYP24A1 (gene 1591)
test: LTEA_HepaRG_CYP24A1: Life Technologies and Expression Analysis (LTEA) Assay for Cytochrome P450 (CYP24A1) using HepaRG (AID 2283478)
testSettings: mRNA level, 48 h; actives raise or lower the signal
Calls of active or inactive are those of the source. The calls were made as follows: active = hit-call score of the fitted dose curve at least 0.9, where 1 is the maximum; inactive = score below 0.9.
Form entry, call: pick from active, inactive

// below: answered molecules
[[record]]
smilesrepresentation = "Nc1ccc(S(=O)(=O)c2ccc(N)cc2)cc1"
label = "active"

[[record]]
smilesrepresentation = "CNC(=O)[C@H]1O[C@@H](n2cnc3c(NCc4cc(Cl)ccc4OCc4cc(C)no4)ncnc32)[C@H](O)[C@@H]1N"
label = "inactive"

[[record]]
smilesrepresentation = "Nc1ccc2c(c1)C(=O)c1ccccc1C2=O"
label = "inactive"

[[record]]
smilesrepresentation = "CCCCCCCCCCCCCCCC"
label = "inactive"

[[record]]
smilesrepresentation = "CCCCCCCCCCO"
label = "inactive"

[[record]]
smilesrepresentation = "C=CCc1ccc(O)c(OC)c1"
label = "inactive"

[[record]]
smilesrepresentation = "CN1CCCC1=O"
label = "inactive"

[[record]]
smilesrepresentation = "O=C(OCCCCCOC(=O)c1ccccc1)c1ccccc1"
label = "inactive"

[[record]]
smilesrepresentation = "CCCCCCCCCCCC(=O)OC"
label = "inactive"

[[record]]
smilesrepresentation = "CCOC(=O)CCC(=O)OCC"
label = "inactive"


From here, focus on the item given below.
Please state the recorded outcome for this molecule: COc1cc(S(=O)(=O)O)c(C)cc1N=Nc1c(O)ccc2cc(S(=O)(=O)O)ccc12
inactive

###

Read-out: Human Leukocyte Antigen - DR isotype (HLADR), HLA-DRA (gene 3122)
test: BSK_CASM3C_HLADR: BioMAP Diversity Plus: CASM3C Assay for Human Leukocyte Antigen - DR isotype (HLADR) Biomarker Activity (AID 2283043);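 also: cell-surface HLA-DR protein level quantified by ELISA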
testSettings: primary human coronary artery smooth muscle cells; actives raise or lower the signal
The source made the active and inactive calls. How the source made its calls: active means hit-call score of the fitted dose curve at least 0.9, where 1 is the maximum; inactive means score below 0.9.
Form entry, call: pick from true = active, false = inactive

// below: answered compounds
[[record]]
compound = "CC(C)(C)c1cc(O)c(C(C)(C)C)cc1O"
label = "false"

[[record]]
compound = "COc1cc(S(=O)(=O)O)c(C)cc1N=Nc1c(O)ccc2cc(S(=O)(=O)O)ccc12"
label = "false"

[[record]]
compound = "CCCCCCC(=O)OCC"
label = "false"

[[record]]
compound = "O=C(N[C@@H](Cc1ccccc1)[C@@H](O)C(=O)N1C[C@@H](O)[C@@H](O)C1)c1cc2cc(Cl)ccc2[nH]1"
label = "false"

[[record]]
compound = "COC(=O)c1ccc(O)cc1"
label = "false"

[[record]]
compound = "CC1(C)CC(N=C=O)CC(C)(CN=C=O)C1 (configuration not stated)"
label = "false"

[[record]]
compound = "Cc1cccc(Nc2cc(Cl)nc(SCC(=O)O)n2)c1C"
label = "false"

[[record]]
compound = "CCCCCCCCCCCC(=O)OC"
label = "false"


Please state the recorded outcome for this compound: Cc1ccc(C)c(C)c1
false

Please state the recorded outcome for this compound: CCOc1ccc2c(c1)C(C)=CC(C)(C)N2
false

Please state the recorded outcome for this compound: Oc1ccc2c(c1)OC[C@@H](N1CCC(O)(c3ccc(F)cc3)CC1)[C@H]2O
false

Please state the recorded outcome for this compound: OC[C@@H](O)[C@@H](O)[C@H](O)[C@H](O)CO
false

Please state the recorded outcome for this compound: CN1CCCC1=O
false

Please state the recorded outcome for this compound: CCNc1cccc(C)c1
false

Please state the recorded outcome for this compound: CCCCCCCCCCCCCO
false

Please state the recorded outcome for this compound: CCc1c(C(=O)NN2CCCCC2)nn(-c2ccc(Cl)cc2Cl)c1-c1ccc(Br)cc1
true

Please state the recorded outcome for this compound: C=CCOC(=O)c1ccccc1C(=O)OCC=C
false

Please state the recorded outcome for this compound: Cc1nc(-c2ccc3c(c2)CCN(CCC2CCC(NC(=O)/C=C/c4ccc(F)cc4)CC2)CC3)no1 (configuration not stated)
true

Please state the recorded outcome for this compound: NC(=O)Cn1c(=O)cc(CCN2CCN(c3nccc4sccc34)CC2)c2ccc(F)cc21
false

Please state the recorded outcome for this compound: CC(=O)Oc1ccccc1C(=O)O
false

Please state the recorded outcome for this compound: COc1ccc(C)cc1N
false

###

test: APR_HepG2_MitoMembPot_24hr: Apredica 24-hour HepG2 Assay for Mitochondrial Membrane Potential (AID 2282911)
testSettings: imaging, actives raise or lower the signal
Active and inactive are the calls of the source. How the source made its calls: active means hit-call score of the fitted dose curve at least 0.9, where 1 is the maximum; inactive means score below 0.9.
Form entry, call: pick from active, inactive

[[record]]
smilesrepresentation = "C=CCOC(=O)c1ccccc1C(=O)OCC=C"
label = "inactive"

[[record]]
smilesrepresentation = "Nc1ccc2c(c1)C(=O)c1ccccc1C2=O"
label = "inactive"


Please state the recorded outcome for this molecule: Oc1ccc2c(c1)OC[C@@H](N1CCC(O)(c3ccc(F)cc3)CC1)[C@H]2O
active

Please state the recorded outcome for this molecule: CCOc1ccc2c(c1)C(C)=CC(C)(C)N2
inactive

Please state the recorded outcome for this molecule: COc1cc(S(=O)(=O)O)c(C)cc1N=Nc1c(O)ccc2cc(S(=O)(=O)O)ccc12
active

Please state the recorded outcome for this molecule: CCCCN(CCCC)CCCC
inactive

###

Read-out: Apolipoprotein A-V (APOA5) gene, APOA5 (gene 116519)
test: LTEA_HepaRG_APOA5: Life Technologies and Expression Analysis (LTEA) Assay for Apolipoprotein A-V (APOA5) gene using HepaRG (AID 2283474)
testSettings: mRNA level, 48 h; actives raise or lower the signal
Active and inactive are the calls of the source. How the source made its calls: active means hit-call score of the fitted dose curve at least 0.9, where 1 is the maximum; inactive means score below 0.9.
Form entry, call: pick from active, inactive

// below: answered compounds
[[record]]
compound = "Cc1cccc(C)c1O"
label = "inactive"

[[record]]
compound = "CC(=O)Oc1ccccc1C(=O)O"
label = "inactive"

[[record]]
compound = "CCCCC(CC)COC(=O)CC(C(=O)OCC(CC)CCCC)S(=O)(=O)O (stereo not drawn)"
label = "inactive"

[[record]]
compound = "Cc1ccc(C(C)C)c(O)c1"
label = "inactive"

[[record]]
compound = "COc1ccc2c(c1)c(CC(=O)O)c(C)n2C(=O)c1ccc(Cl)cc1"
label = "inactive"

[[record]]
compound = "CCCCCCCCCCO"
label = "inactive"

[[record]]
compound = "CCCCCCCCCCCCCCCC"
label = "inactive"

[[record]]
compound = "OC[C@@H](O)[C@@H](O)[C@H](O)[C@H](O)CO"
label = "inactive"

[[record]]
compound = "Cc1ccc(C)c(C)c1"
label = "inactive"

[[record]]
compound = "Cc1c(C(=O)O)c(O)cc2c1C(=O)c1c(O)c([C@@H]3O[C@H](CO)[C@@H](O)[C@H](O)[C@H]3O)c(O)c(O)c1C2=O"
label = "inactive"


Please state the recorded outcome for this compound: CC1=C(/C=C/C(C)=C/C=C/C(C)=C/CO)C(C)(C)CCC1
active

Please state the recorded outcome for this compound: Cc1oc(-c2ccccc2)nc1CCOc1cccc2c1ccn2CCC(=O)O
active

Please state the recorded outcome for this compound: CC(CO)OC(C)CO (stereo not drawn) (tested in a mixture with another compound)
inactive

Please state the recorded outcome for this compound: CCOC(=O)CCC(=O)OCC
inactive

###

test: BSK_CASM3C_Proliferation: Cell Proliferation Assessment in the BioMAP Diversity Plus: CASM3C Assay (AID 2283047);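 also: sulforhodamine B total protein stain as relative cell number at 560 nm; sub-confluent cells exposed 48 h before staining; fitted both ways against DMSO so gain or loss of cell number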
testSettings: primary human coronary artery smooth muscle cells
Active and inactive are the calls of the source. Rule for the calls: active = hit-call score of the fitted dose curve at least 0.9, where 1 is the maximum; inactive = score below 0.9.
Form entry, call: pick from active, inactive

// below: answered compounds
[[record]]
compound = "Cc1ccc(N(C)C)cc1"
label = "inactive"

[[record]]
compound = "COc1cc(S(=O)(=O)O)c(C)cc1N=Nc1c(O)ccc2cc(S(=O)(=O)O)ccc12"
label = "inactive"

[[record]]
compound = "CCCCCCCCCCCCCO"
label = "active"

[[record]]
compound = "CCCCC(CC)COC(=O)CC(C(=O)OCC(CC)CCCC)S(=O)(=O)O (stereo not drawn)"
label = "inactive"

[[record]]
compound = "NC(=O)Cn1c(=O)cc(CCN2CCN(c3nccc4sccc34)CC2)c2ccc(F)cc21"
label = "inactive"

[[record]]
compound = "NCCO"
label = "inactive"

[[record]]
compound = "CC(=O)C(C)=CC1C(C)=CCCC1(C)C (stereo not drawn)"
label = "inactive"

[[record]]
compound = "C=CCc1ccc(O)c(OC)c1"
label = "inactive"

[[record]]
compound = "CC=Cc1ccc(O)c(OC)c1"
label = "inactive"

[[record]]
compound = "O=C(O)CCCCC(=O)O"
label = "inactive"


Please state the recorded outcome for this compound: Cc1ccc(C)c(C)c1
inactive

Please state the recorded outcome for this compound: Cc1cccc([N+](=O)[O-])c1C
inactive

Please state the recorded outcome for this compound: Cc1ccc(C)c(O)c1C
inactive

Please state the recorded outcome for this compound: Nc1ccc(S(=O)(=O)c2ccc(N)cc2)cc1
inactive

Please state the recorded outcome for this compound: Cc1cccc(C)c1O
inactive

Please state the recorded outcome for this compound: COC(=O)c1ccc(O)cc1
inactive
